tested on: IL-2 secretion by human effector memory T cells (TEM); test: Effector memory T cells IL-2 release assay; assay type: cell-based; settings: T-cell; human CD4+ effector memory T cells, CD3/CD28 bead stimulation, 24 h; read-out: CD4TC IL2 IC50
Listed below: IC50 values for each entry.
Return type: number; implicit unit µM.

A selection of reference data follows.
| molecule | property | measured |
| --- | --- | --- |
| CCC(O)C(=O)N(C)[C@@H](c1ccc(N2CCCc3c2cnc2cc(Cl)nn32)cc1)C(F)(F)F (stereo partly shown) [CPD0021576] | IC50 | 0.333 |
| CN(C(=O)C1CCSCC1)[C@@H](c1ccc(N2CCCc3c2cnc2cc(Cl)nn32)cc1)C(F)(F)F [CPD0019482] | IC50 | 0.146 |
| CN(C(=O)[C@@H]1CCC(=O)N1C)[C@@H](c1ccc(N2CCCc3c2cnc2cc(Cl)nn32)cc1)C(F)(F)F [CPD0073919] | IC50 | 0.112 |

Entry under review: CN(C(=O)C1(C#N)CCS(=O)(=O)CC1)[C@@H](c1ccc(N2CCCc3c2cnc2cc(Cl)nn32)cc1)C(F)(F)F [CPD0073553] . Reported IC50? 0.077

Entry under review: CN(C(=O)CC1CCOC1)[C@@H](c1ccc(N2CCCc3c2cnc2cc(Cl)nn32)cc1)C(F)(F)F (stereo partly shown) [CPD0021874] . Reported IC50? 0.209

Entry under review: CN(C(=O)[C@H]1C[C@@H](C(=O)O)C1)[C@@H](c1ccc(N2CCCc3c2cnc2cc(Cl)nn32)cc1)C(F)(F)F [CPD0072934] . Reported IC50? 0.422

Entry under review: COc1ccc2ncc(Nc3ccc([C@H](N(C)C(=O)[C@H]4CC[S@+]([O-])CC4)C(F)(F)F)cc3)c([C@H](C)OC)c2n1 (relative stereo) [CPD0072936] . Reported IC50? 0.017

---

test system: IL-2 secretion by human effector memory T cells (TEM); assay: Effector memory T cells IL-2 release assay; type: cell-based; details: T-cell; human CD4+ effector memory T cells, CD3/CD28 bead stimulation, 24 h; read-out: CD4TC IL2 IC50
property: pIC50
Value format note: pIC50 is -log10 of concentration (mol/L); just state the number.

| compound | property | measured |
| --- | --- | --- |
| COCC(=O)N1CC[C@@H](C(=O)N(C)[C@@H](c2ccc(N3CCCc4c3cnc3cc(Cl)nn43)cc2)C(F)(F)F)C1 (relative stereo) | pIC50 | 6.94 |
| COC(C)c1c(Nc2ccc([C@H](N(C)C(=O)C3CCS(=O)(=O)CC3)C(F)(F)F)cc2)cnc2ccc(Cl)nc12 (stereo partly shown) | pIC50 | 7.66 |
| CN(C(=O)[C@H]1CCN(C(=O)CO)C1)[C@@H](c1ccc(N2CCCc3c2cnc2cc(Cl)nn32)cc1)C(F)(F)F (relative stereo) | pIC50 | 6.94 |
| CC1CCN(c2ccc([C@H](N(C)C(=O)[C@H]3CC[S@@](=N)(=O)CC3)C(F)(F)F)cc2)c2cnc3cc(Cl)nn3c21 (stereo partly shown) | pIC50 | 7.10 |
| COc1ccc2ncc(Nc3ccc([C@H](N(C)C(=O)[C@H]4CC[S@@](=N)(=O)CC4)C(F)(F)F)cc3)c([C@H](C)OC)c2n1 (stereo in doubt) | pIC50 | 7.44 |

Entry under review: COc1ccc2ncc(Nc3ccc([C@H](N(C)C(=O)[C@H]4CC[S@](=N)(=O)CC4)C(F)(F)F)cc3)c([C@H](C)OC)c2n1 (stereo in doubt) . Reported pIC50? 7.62

Entry under review: CN(C(=O)C1CC[S+]([O-])CC1)[C@@H](c1ccc(N2CCCc3c2cnc2cc(Cl)nn32)cc1)C(F)(F)F (stereo partly shown) . Reported pIC50? 7.07

Entry under review: CN(C(=O)CN1C(=O)COC1=O)[C@@H](c1ccc(N2CCCc3c2cnc2cc(Cl)nn32)cc1)C(F)(F)F . Reported pIC50? 6.29

Entry under review: CN(C(=O)C1CCS(=O)(=O)CC1)[C@@H](c1ccc(N2CCC3(CC3)c3c2cnc2cc(Cl)nn32)nc1)C(F)(F)F . Reported pIC50? 6.95

Entry under review: C[C@@H]1CCN(c2ccc([C@H](N(C)C(=O)[C@H]3CC[S@](=N)(=O)CC3)C(F)(F)F)cc2)c2cnc3cc(F)nn3c21 (relative stereo) . Reported pIC50? 7.00

Entry under review: COC[C@]1(C)CCN(c2ccc([C@H](N(C)C(=O)[C@H]3CC[S@@](=N)(=O)CC3)C(F)(F)F)cc2)c2cnc3cc(Cl)nn3c21 (relative stereo) . Reported pIC50? 7.01

Entry under review: COc1ccc2ncc(Nc3ccc([C@H](N(C)C(=O)C4CCS(=O)(=O)CC4)C(F)(F)F)cc3)c([C@@H](C)OC)c2n1 (relative stereo) . Reported pIC50? 6.96

Entry under review: C[C@@H]1CCN(c2ccc([C@H](N(C)C(=O)[C@H]3CC[S@@](=N)(=O)CC3)C(F)(F)F)cc2)c2cnc3cc(Cl)nn3c21 (relative stereo) . Reported pIC50? 7.10

---

molecular target: Recombinant human MALT-1 (amino acids 340-824) (Homo sapiens (Human), UniProt Q9UDY8); assay: MALT-1 inhibition assay (fluorogenic substrate Ac-LRSR-Rh110-DP); details: recombinant human MALT-1, substrate Ac-LRSR-Rh110-DP
Sequence (Q9UDY8 340-824): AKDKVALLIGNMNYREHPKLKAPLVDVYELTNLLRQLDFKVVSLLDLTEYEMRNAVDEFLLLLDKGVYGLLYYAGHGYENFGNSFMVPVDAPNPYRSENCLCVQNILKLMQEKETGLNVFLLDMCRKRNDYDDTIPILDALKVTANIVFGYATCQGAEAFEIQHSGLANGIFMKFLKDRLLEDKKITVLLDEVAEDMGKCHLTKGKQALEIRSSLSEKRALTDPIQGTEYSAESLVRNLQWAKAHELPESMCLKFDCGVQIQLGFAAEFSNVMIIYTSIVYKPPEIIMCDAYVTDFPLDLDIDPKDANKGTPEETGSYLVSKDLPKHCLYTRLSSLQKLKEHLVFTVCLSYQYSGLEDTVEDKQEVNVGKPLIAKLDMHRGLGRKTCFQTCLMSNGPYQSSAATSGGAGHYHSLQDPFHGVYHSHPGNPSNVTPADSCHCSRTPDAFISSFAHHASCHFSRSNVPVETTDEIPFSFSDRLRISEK
property: pIC50
Value format note: pIC50 is -log10 of concentration (mol/L); just state the number.

| molecule | measured |
| --- | --- |
| CN(C(=O)N1CCS(=O)(=O)CC1)[C@@H](c1ccc(N2CCCc3c2cnc2cc(Cl)nn32)cc1)C(F)(F)F [CPD0072804] | 6.80 |
| CN(C(=O)[C@H]1CCS(=O)(=O)C1)[C@@H](c1ccc(N2CCCc3c2cnc2cc(Cl)nn32)cc1)C(F)(F)F (relative stereo) [CPD0022134] | 6.87 |
| CN(C(=O)[C@H]1CNC(=O)C1)[C@H](c1ccc(N2CCCc3c2cnc2cc(Cl)nn32)cc1)C(F)(F)F (stereo in doubt) [CPD0077244] | 6.24 |

Turning now to a further record.
Entry under review: COC[C@@]1(C)CCN(c2ccc([C@H](N(C)C(=O)[C@H]3CC[S@@+]([O-])CC3)C(F)(F)F)cc2)c2cnc3cc(Cl)nn3c21 (relative stereo) [CPD0073137] . Reported pIC50? 7.05

---

target: Recombinant human MALT-1 (amino acids 340-824) (Homo sapiens (Human)); test: MALT-1 inhibition assay (fluorogenic substrate Ac-LRSR-Rh110-DP); settings: recombinant human MALT-1, substrate Ac-LRSR-Rh110-DP
property: log10(IC50) (log10 of the value in nM)
Please be aware that the numbers have been log10-transformed from IC50 in nM.

Entry under review: CN(C(=O)C1CCS(=O)(=O)CC1)[C@@H](c1ccc(N2CCCc3c2cnc2cc(Cl)nn32)cc1)C(C)(F)F . Reported log10(IC50)? 2.51

Entry under review: CN(C(=O)CN1CCNCC1)[C@@H](c1ccc(N2CCCc3c2cnc2cc(Cl)nn32)cc1)C(F)(F)F . Reported log10(IC50)? 2.57

Entry under review: CN(C(=O)C1CCOC1)[C@@H](c1ccc(N2CCCc3c2cnc2cc(Cl)nn32)cc1)C(F)(F)F (stereo partly drawn) . Reported log10(IC50)? 2.23

---

biological target: Recombinant human MALT-1 (amino acids 340-824) (Homo sapiens (Human), UniProt Q9UDY8); experiment: MALT-1 inhibition assay (fluorogenic substrate Ac-LRSR-Rh110-DP); conditions: recombinant human MALT-1, substrate Ac-LRSR-Rh110-DP
property: pIC50
Value format note: pIC50 is -log10 of concentration (mol/L); just state the number.

A selection of reference data follows.
| molecule | testedTarget | pIC50 |
| --- | --- | --- |
| CN(C(=O)CN1C(=O)COC1=O)[C@@H](c1ccc(N2CCCc3c2cnc2cc(Cl)nn32)cc1)C(F)(F)F [CPD0073237] | Recombinant human MALT-1 (amino acids 340-824) (Homo sapiens (Human), UniProt Q9UDY8) | 6.76 |
| CN(C(=O)CN1CCOCC1)[C@@H](c1ccc(N2CCCc3c2cnc2cc(Cl)nn32)cc1)C(F)(F)F [CPD0073243] | Recombinant human MALT-1 (amino acids 340-824) (Homo sapiens (Human), UniProt Q9UDY8) | 6.56 |
| CN(C(=O)[C@@H]1CNC(=O)C1)[C@H](c1ccc(N2CCCc3c2cnc2cc(Cl)nn32)cc1)C(F)(F)F (stereo in doubt) [CPD0077245] | Recombinant human MALT-1 (amino acids 340-824) (Homo sapiens (Human), UniProt Q9UDY8) | 6.45 |
| CN(C(=O)CC#N)[C@@H](c1ccc(N2CCCc3c2cnc2cc(Cl)nn32)cc1)C(F)(F)F [CPD0019342] | Recombinant human MALT-1 (amino acids 340-824) (Homo sapiens (Human), UniProt Q9UDY8) | 6.77 |
| CN(C(=O)C1CN(C(=O)[C@@H]2CCO2)C1)[C@@H](c1ccc(N2CCCc3c2cnc2cc(Cl)nn32)cc1)C(F)(F)F (relative stereo) [CPD0073563] | Recombinant human MALT-1 (amino acids 340-824) (Homo sapiens (Human), UniProt Q9UDY8) | 7.21 |

Entry under review: Cc1cn2ncc(Nc3ccc([C@H](N(C)C(=O)C4CCS(=O)(=O)CC4)C(F)(F)F)cc3)cc2n1 [CPD0018617] . Reported pIC50? 6.22
